- STUDY SYSTEM: NT647-MEK1 (MEK1 residues 37–383) (Homo sapiens, UniProt Q02750)
- Sequence (Q02750 37-383): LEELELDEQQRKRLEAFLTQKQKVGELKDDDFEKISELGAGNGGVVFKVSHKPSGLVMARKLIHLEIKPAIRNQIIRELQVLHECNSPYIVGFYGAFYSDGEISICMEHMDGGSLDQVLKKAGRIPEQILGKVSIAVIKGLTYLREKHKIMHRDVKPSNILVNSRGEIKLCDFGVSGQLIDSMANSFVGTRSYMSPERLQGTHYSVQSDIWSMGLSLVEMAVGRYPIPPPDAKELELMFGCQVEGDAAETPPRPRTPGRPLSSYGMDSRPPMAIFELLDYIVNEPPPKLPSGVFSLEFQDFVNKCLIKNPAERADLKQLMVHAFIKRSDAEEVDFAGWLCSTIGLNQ
- ASSAY DETAILS: Automated microscale thermophoresis
- Type: binding
- ASSAY SETUP: Kd of ATP in the absence of MgCl2, without MgCl2
METRIC: pKd
Please treat pKd as minus the base-10 logarithm of the molar concentration.

Given the compound Nc1ncnc2c1ncn2[C@@H]1O[C@H](COP(=O)(O)OP(=O)(O)OP(=O)(O)O)[C@@H](O)[C@H]1O [ATP, adenosine triphosphate] , what is its reported pKd?
3.85

* * *

- STUDY SYSTEM: NT647-MEK1 (MEK1 residues 37–383) (Homo sapiens, UniProt Q02750)
- ASSAY DETAILS: Automated microscale thermophoresis
- Assay type: binding
- ASSAY SETUP: Kd of ATP in the presence of MgCl2, MST buffer with 10 mM MgCl2
METRIC: pKd
Please treat pKd as minus the base-10 logarithm of the molar concentration.

Give NT647-MEK1 (MEK1 residues 37–383) (Homo sapiens, UniProt Q02750) pKd for Nc1ncnc2c1ncn2[C@@H]1O[C@H](COP(=O)(O)OP(=O)(O)OP(=O)(O)O)[C@@H](O)[C@H]1O [ATP, adenosine triphosphate]
5.35
